assay: qHTS assay for identifying genotoxic compounds that show differential cytotoxicity against isogenic chicken DT40 cell lines with known DNA damage response pathways - Rev3 mutant cell line (AID 743014); conditions: chicken DT40 Rev3-/- viability, CellTiter-Glo, 40 h; series mostly up to 68.4 µM; also: nearly all actives have a fitted effect of over 55% in size
Results filed as inconclusive are left out. Calls of active or inactive are those of the source. Calls follow the shape of the dose curve; as a rule, active = well fitted cell-killing curve with a large enough effect in the repeat runs; inconclusive = weak or mixed curves, or effect the other way; inactive = no such curve, though single readings can be large or run the other way.
# valid calls are active, inactive; nothing else

Known results for molecules:
>>> classification("CNN")
"inactive"
>>> classification("CC(C)C(Br)C(=O)NC(N)=O (configuration not stated)")
"inactive"

## Input Hi, sorry to bother you, what did the test record for C=C(C)C(=O)[O][Sn]([CH2]CCC)([CH2]CCC)[CH2]CCC ?
## Output active

## Input Continue with CC(=O)[O-].CC(=O)[O-].CC(=O)[O-].[Cr+3]
## Output active

## Input Next molecule: N#CC(C#N)=NNc1cccc(Cl)c1
## Output active

## Input Next molecule up: ClC(Cl)C(Cl)(Cl)Cl
## Output inactive

## Input Now the same for CC(=O)O.CC(=O)O.CC(=O)O.CC(=O)O.CC(=O)O.CC(=O)O.CC(=O)O.O.O.[Cr].[Cr].[Cr]
## Output inactive

###

assay: qHTS assay to test for compound auto fluorescence at 590 nm (red) in HEK293 cells (AID 720679); details: red autofluorescence 540/590 nm; series mostly up to 91.3 µM; also: % is scaled to controls: 0 for no effect and ±100 for the full control effect
The source made the active and inactive calls. Calls come from the whole dose curve; as a rule, active = well fitted curve in the direction sought with a large enough effect in the repeat runs; inconclusive = weak or mixed curves; inactive = flat fitted curve, though single readings scatter.
MEASURED_QUANTITY: fluorescence, % of fluorescent control

Example molecules with recorded fluorescence, % of fluorescent control:
>>> value("Oc1ccc([C@H]2CNCc3c2ccc(O)c3O)cc1O")
"inactive"
>>> value("CCOP(=O)(OCC)Oc1nc(Cl)c(Cl)cc1Cl")
"inactive"
>>> value("CC(C)Br")
"inactive"
>>> value("BrCCCBr")
"inactive"
>>> value("O=C1C[C@@H]2OCC=C3CN4CC[C@]56c7ccccc7N1[C@H]5[C@H]2[C@H]3C[C@H]46")
"inactive"
>>> value("O=C(NC(=O)c1ccccc1Cl)Nc1ccc(OC(F)(F)F)cc1")
"inactive"

Kindly consider the entry below.
## Input What fluorescence, % of fluorescent control value was documented for this molecule, C=C(C)C(=O)[O][Sn]([CH2]CCC)([CH2]CCC)[CH2]CCC ?
## Output inactive

###

test: qHTS assay to identify small molecule antagonists of the constitutive androstane receptor (CAR) signaling pathway - cell viability counter screen (AID 1224837); conditions: HepG2-CYP2B6-hCAR viability, CellTiter-Fluor, 23 h, co-treated with 50 nM CITCO; series mostly up to 92.4 µM; also: % is scaled to controls: 0 for no effect and ±100 for the full control effect; nearly all actives have a fitted effect of over 45% in size
Inconclusive results are not listed. Activity calls are given as the source filed them. The call rests on the fitted dose curve; in most records, active means well fitted cell-killing curve with a large enough effect in the repeat runs; inconclusive means weak or mixed curves, or effect the other way; inactive means flat fitted curve, though single readings scatter.
The reply should name one outcome from Y (active), N (inactive)

Example entries begin here.
>>> classification("C=Cc1cccc(CCl)c1")
"N"
>>> classification("CCNS(=O)(=O)C(F)(F)C(F)(F)C(F)(F)C(F)(F)C(F)(F)C(F)(F)C(F)(F)C(F)(F)F")
"N"
>>> classification("CSC(=O)c1c(C(F)F)nc(C(F)(F)F)c(C(=O)SC)c1CC(C)C")
"N"

## Input Call for entry CC(=O)[O-].CC(=O)[O-].[Co+2] :
## Output N

## Input Field entry: CC(C)C(Br)C(=O)NC(N)=O (stereo unspecified)
## Output N

## Input Check Brc1ccc(Oc2ccc(Br)cc2Br)c(Br)c1 too.
## Output N

## Input Same lookup for CC(C)=CC1C(C(=O)OC(C#N)c2cccc(Oc3ccccc3)c2)C1(C)C (stereo unspecified) , please.
## Output N

## Input // repeat for CC(=O)[O-].CC(=O)[O-].CC(=O)[O-].[Cr+3] and report
## Output N

## Input Okay, and CC1(C)[C@H](/C=C2\CCSC2=O)[C@@H]1C(=O)OCc1coc(Cc2ccccc2)c1 ?
## Output N

## Input Subsequent entry: O=C1C(Cl)=C(Cl)C(=O)C(Cl)=C1Cl
## Output N

###

target: Nuclear receptor ROR-gamma (Homo sapiens) (UniProt P51449); test: qHTS assay to identify small molecule antagonists of the retinoid-related orphan receptor gamma (ROR-gamma) signaling pathway (AID 1159521; also: nearly all actives have a fitted effect of over 50% in size); details: Tet-on RORgamma CHO cells, RORE-luciferase, 16 h; series mostly up to 92.4 µM
Inconclusive results are not listed. Activity calls are given as the source filed them. Calls follow the shape of the dose curve; as a rule, active = well fitted inhibition curve with a large enough effect in the repeat runs; inconclusive = weak or mixed curves, or effect the other way; inactive = no such curve, though single readings can be large or run the other way.
Returns: one label drawn from yes = active, no = inactive

Before answering, review these 4 worked examples.
>>> classification("COC(=O)c1cc(Oc2ccc(Cl)cc2Cl)ccc1[N+](=O)[O-]")
"yes"
>>> classification("CC(O)C(=O)[O][Hg][c]1ccccc1 (stereo not drawn)")
"yes"
>>> classification("COC(=O)/C=C(\\C)OP(=O)(OC)OC")
"no"
>>> classification("CCOP(=S)(OCC)SC(CCl)N1C(=O)c2ccccc2C1=O (stereo not drawn)")
"no"

## Input Recorded call for CCC(C)Nc1c([N+](=O)[O-])cc(C(C)(C)C)cc1[N+](=O)[O-] (stereo not drawn) ?
## Output no

###

assay: qHTS RealTime-Glo MT Cell Viability Assay in HepG2 cells - 16 hour (AID 1224885); conditions: RealTime-Glo luminescence; series mostly up to 76.8 µM; also: nearly all actives have a fitted effect of over 50% in size
Results filed as inconclusive are left out. Active and inactive are the calls of the source. The call rests on the fitted dose curve; in most records, active means well fitted cell-killing curve with a large enough effect in the repeat runs; inconclusive means weak or mixed curves; inactive means flat fitted curve, though single readings scatter.
Lab note: assign the record to one of true (active), false (inactive)

>>> classification("Cc1c([N+](=O)[O-])cc2c(c1[N+](=O)[O-])C(C)(C)CC2(C)C")
"false"
>>> classification("O=[N+]([O-])c1cccc2cccc([N+](=O)[O-])c12")
"false"
>>> classification("CCOP(=S)(OCC)SC(CCl)N1C(=O)c2ccccc2C1=O (stereo not given)")
"false"

## Input Call for entry c1cc[n+]2c(c1)-c1cccc[n+]1CC2 :
## Output false

## Input Now the same for O=[N+]([O-])c1cc(C(F)(F)F)c(Cl)c([N+](=O)[O-])c1Nc1ncc(C(F)(F)F)cc1Cl
## Output true

###

test: qHTS assay to identify small molecule antagonists of the estrogen related receptor signaling pathway with the pleiotropic PPARgamma coactivator (PGC) from Tox21 10K library - cell viability counter screen (AID 1224840); details: PGC/ERR reporter cells viability, CellTiter-Fluor, 17.5 h; series mostly up to 92.4 µM; also: % is scaled to controls: 0 for no effect and ±100 for the full control effect; nearly all actives have a fitted effect of over 40% in size
Records with an inconclusive call do not appear. Activity calls are given as the source filed them. Calls come from the whole dose curve; as a rule, active = well fitted cell-killing curve with a large enough effect in the repeat runs (not every such curve was filed as active); inconclusive = weak or mixed curves, or effect the other way; inactive = no such curve, though single readings can be large or run the other way.
Would you mind answering with one of these outcomes? 1.0 = active, 0.0 = inactive

>>> classification("O=[N+]([O-])[O-].[Tl+]")
0.0
>>> classification("CC(C)c1c(CN(C)C(C)Cc2ccccc2)n(C)n(-c2ccccc2)c1=O (stereo unspecified)")
0.0
>>> classification("O=C(Cl)c1ccccc1F")
0.0
>>> classification("CCCCON=O")
0.0
>>> classification("ClC1=C(Cl)[C@]2(Cl)[C@H]3[C@H]([C@@H]4C=C[C@H]3C4)[C@@]1(Cl)C2(Cl)Cl")
0.0
>>> classification("CCCCN(CCCC)C(=S)[S-].CCCCN(CCCC)C(=S)[S-].[Ni+2]")
0.0
>>> classification("CCn1cc[n+](C)c1 (tested in a mixture with another compound)")
0.0
>>> classification("Clc1ccc(C2(Cn3cncn3)OCCO2)c(Cl)c1")
0.0

Would you kindly look at the next entry?
## Input In this assay, the call recorded for [O]=[Cr][O][Cr]=[O] was what?
## Output 0.0

###

molecular target: Cytochrome P450 2C19 (Homo sapiens) (UniProt P33261); assay: Cytochrome P450 Family 2 Subfamily C Member 19 (CYP2C19) small molecule antagonists: luciferase reporter qHTS assay (AID 1671197); conditions: P450-Glo CYP2C19 enzyme, luciferin luminescence, 1 h; series mostly up to 115 µM; also: nearly all actives have a fitted effect of over 65% in size
Sequence (P33261 whole entry, looked up): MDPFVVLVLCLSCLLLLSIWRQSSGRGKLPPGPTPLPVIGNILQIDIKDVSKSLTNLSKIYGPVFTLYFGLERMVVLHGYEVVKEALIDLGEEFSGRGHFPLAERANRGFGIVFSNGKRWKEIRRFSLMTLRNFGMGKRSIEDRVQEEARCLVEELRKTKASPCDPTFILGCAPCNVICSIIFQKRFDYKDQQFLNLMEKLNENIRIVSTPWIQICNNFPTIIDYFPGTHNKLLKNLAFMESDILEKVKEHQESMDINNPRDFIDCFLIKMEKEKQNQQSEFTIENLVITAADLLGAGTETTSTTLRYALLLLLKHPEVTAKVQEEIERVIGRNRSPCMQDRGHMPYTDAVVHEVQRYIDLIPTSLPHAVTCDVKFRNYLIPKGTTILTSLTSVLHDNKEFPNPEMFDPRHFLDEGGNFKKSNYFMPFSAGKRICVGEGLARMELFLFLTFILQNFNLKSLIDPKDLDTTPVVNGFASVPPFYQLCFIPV
Inconclusive results are not listed. The source made the active and inactive calls. Calls come from the whole dose curve; as a rule, active = well fitted inhibition curve with a large enough effect in the repeat runs; inconclusive = weak or mixed curves; inactive = no such curve, though single readings can be large or run the other way.
The reply should be one of these categories: active, inactive

## Input What classification did CC[C@H](C)[C@H]1O[C@]2(C=C[C@@H]1C)C[C@@H]1C[C@@H](C/C=C(\C)[C@@H](O[C@H]3C[C@H](OC)[C@@H](O[C@H]4C[C@H](OC)[C@@H](NC)[C@H](C)O4)[C@H](C)O3)[C@@H](C)/C=C/C=C3\CO[C@@H]4[C@H](O)C(C)=C[C@@H](C(=O)O1)[C@]34O)O2 end up with in this test?
## Output active

## Input Try this compound too: c1csc(-c2ccc(-c3cccs3)s2)c1
## Output active

## Input Follow-up item: Oc1cc(Cl)cc(Cl)c1
## Output inactive

###

target: Thyrotropin receptor (Homo sapiens); test: qHTS assay to identify small molecule antagonists of the thyroid stimulating hormone receptor (TSHR) signaling pathway (AID 1259385); conditions: TSHR-HEK293 cAMP HTRF, TSH-stimulated antagonist mode; series mostly up to 92.4 µM; also: % is scaled to controls: 0 for no effect and ±100 for the full control effect; nearly all actives have a fitted effect of over 20% in size
Inconclusive results are not listed. Calls of active or inactive are those of the source. Calls come from the whole dose curve.
Pick one and only one: active, inactive

Check out these entries, answers already filled in.
>>> classification("CCC(C)c1cccc(C(C)CC)c1O (configuration not stated)")
"inactive"
>>> classification("CC(Cl)CCl (configuration not stated)")
"inactive"
>>> classification("CCOC(=O)CCN(SN(C)C(=O)Oc1cccc2c1OC(C)(C)C2)C(C)C")
"inactive"

## Input For COc1ccc2c(c1OC)C(=O)O[C@@H]2[C@H]1c2cc3c(cc2CCN1C)OCO3 , which call appears in the assay record?
## Output inactive

## Input Moving on to Nc1ccc(Cl)cc1C(=O)c1ccccc1F
## Output inactive

## Input Consider next the compound CN1C(=O)[C@@H](NC(=O)c2cc3ccccc3[nH]2)N=C(c2ccccc2)c2ccccc21 in the same way.
## Output inactive

## Input Another compound: Nc1c(Cl)c(Cl)c(Cl)c(Cl)c1Cl
## Output inactive

## Input Lookup OCC(Br)CBr (configuration not stated)
## Output inactive

## Input Next compound up: COc1nc(C)nc(NC(=O)NS(=O)(=O)c2ccccc2Cl)n1
## Output inactive

## Input C=Cc1cccc(CCl)c1 , same question.
## Output inactive

## Input Input COc1ccc(Cc2nccc3cc(OC)c(OC)cc23)cc1OC
## Output inactive

## Input One more compound: COP(=O)(OC)Oc1ccc([N+](=O)[O-])cc1
## Output inactive

## Input Then CN=C=O ?
## Output inactive

## Input Consider next the compound Cc1cccc(Cc2cnc[nH]2)c1C in the same way.
## Output inactive

## Input Next up: CNC(=O)O/N=C(\C)C(C)S(C)(=O)=O (configuration not stated)
## Output inactive

## Input And the next one, ClC1(Cl)C2(Cl)C3(Cl)C4(Cl)C(Cl)(Cl)C5(Cl)C3(Cl)C1(Cl)C5(Cl)C24Cl (configuration not stated) ?
## Output inactive

## Input Same thing, different compound: CN1CCc2cc(Cl)c(O)cc2[C@H]2c3ccccc3CC[C@@H]21
## Output inactive

## Input Now the compound O=S(=O)(O)F
## Output inactive

## Input How about this compound: CC(Cc1ccccc1)N(C)Cc1ccco1 (configuration not stated)
## Output inactive

## Input Here is the next compound: CCC[CH2][Sn]([CH2]CCC)([O]C(C)=O)[O]C(C)=O
## Output inactive

## Input # iterate: O=S1OCC2C(CO1)C1(Cl)C(Cl)=C(Cl)C2(Cl)C1(Cl)Cl (configuration not stated)
## Output inactive
